System: BRD3 (Homo sapiens (Human), UniProt Q15059) | Read-out: pIC50 | Origin: multiple publications
Scale: negative log10 of molar concentration, which is what pIC50 denotes.

# pIC50 lookup, item Cn1cc(N2C(=O)c3nn(C4CC4)c(C(F)(F)F)c3C2c2ccc(Cl)cc2)cc(Cl)c1=O (stereo not shown)
6.82

Entry COc1ccc(-c2nc3c(n2C(C)C)[C@@H](c2ccc(Cl)cc2)N(c2cc(C)c4nnn(C)c4n2)C3=O)cn1 please
7.72

Entry Cc1[nH]nc2c1C(=O)N(c1cc(C)c(=O)n(C)c1)C2c1ccc(Cl)cc1 (stereo not shown) please
7.17

Entry COc1cc(N2C(=O)c3nc(C4CCOCC4)n(C(C)C)c3C2c2ccc(Cl)cc2)cc2c1nnn2C (racemic) please
7.24

Entry CCOC(=O)Nc1cc(N2C(=O)c3c(C4CC4)nn(C)c3C2c2ccc(Cl)cc2)cn2c(C)nnc12 (stereo not shown) please
7.66

Entry COc1ncccc1-n1nc(C)c2c1C(=O)N(c1cc(C)c3nnc(C)n3c1)C2c1ccc(F)cc1F (stereo not shown) please
7.06

Entry Cc1cc(N2C(=O)c3c(NC(=O)OC(C)(C)C)cn(C)c3C2c2ccc(Cl)cc2)cn2c(C)nnc12 (stereo not shown) please
7.47

====

System: BRD3 (Homo sapiens (Human), UniProt Q15059) | Read-out: IC50 | Origin: multiple publications

# IC50 lookup, item Cc1nn(C2CC2)c2c1C(c1ccc(Cl)cc1)N(c1cn(C)c(=O)c3[nH]ccc13)C2=O (stereo not shown)
52 nM

Entry Cc1cc(N2C(=O)c3nc(C)n(C(C)C)c3[C@H]2c2ccc(Cl)cc2)nn2c(C)nnc12 please
< 11 nM

Entry Cc1nn(C2CC2)c2c1C(c1ccc(Cl)cc1F)N(c1cc(C)c3nnc(C)n3c1)C2=O (stereo not shown) please
62 nM

Entry Cc1nn(C2CC2)c2c1C(c1ccc(Cl)cc1)N(c1cc(N(C)C(=O)OC(C)(C)C)c3nnc(C)n3n1)C2=O (stereo not shown) please
> 37000 nM

Entry Cc1cc(N2C(=O)c3ccn(C)c3C2c2ccc(Cl)cc2)nn2c(C)nnc12 (stereo not shown) please
27 nM

Entry Cc1nnn2c1-c1ccc(C(=O)NC(C)c3ccc(F)cc3)cc1N(c1ccc(Cl)cc1)CC2 (stereo in doubt) please
< 100 nM

Entry Cc1nn(C2CC2)c2c1C(c1ccc(OC(F)(F)F)cc1)N(c1cc(C)c(=O)n(C)c1)C2=O (stereo not shown) please
73 nM

====

System: BRD3 (Homo sapiens (Human), UniProt Q15059) | Read-out: pIC50 | Origin: multiple publications
Scale: negative log10 of molar concentration, which is what pIC50 denotes.

# pIC50 lookup, item Cc1cc(N2C(=O)c3nc(C4=CC(C)(C)NC(C)(C)C4)n(C(C)C)c3C2c2ccc(Cl)cc2)cn2c(C)nnc12 (stereo not shown)
7.60

Entry Cn1cc2c(n1)C(=O)N(c1cc(Cl)c(=O)n(C)c1)[C@@H]2c1ccc(Cl)cc1 please
7.00

Entry Cc1cc(N2C(=O)c3c(C(=O)N(C)C)cn(C)c3C2c2ccc(Cl)cc2)nc2c1nnn2C (stereo not shown) please
7.89

Entry COc1ccc(-c2nc3c(n2C(C)C)C(c2ccc(Cl)cc2)N(c2cc(C)c4nnn(C)c4c2)C3=O)cn1 (stereo not shown) please
7.52

Entry COc1ccc(-c2nc3c(n2C)C(=O)N(c2cc(C)c(=O)n(C)c2)C3c2ccc(Cl)cc2)cn1 (stereo not shown) please
7.06

Entry CCn1nc(C)c2c1C(=O)N(c1cc(C)c3nnc(C)n3c1)[C@@H]2c1ccc(Cl)cc1F please
7.36

Entry CCn1nc2c(c1C)C(c1ccc(Cl)cc1)N(c1cc(C)c3nnc(C)n3c1)C2=O (stereo not shown) please
7.34

Entry Cc1cc(N2C(=O)c3c(C4CC4)cn(C4CN(C)C4)c3C2c2ccc(Cl)cc2)nc2c1nnn2C (stereo not shown) please
7.92

Entry COc1ncc(-c2nc3c(n2C(C)C)C(c2ccc(Cl)cc2)N(c2cc(C)c4onc(C)c4c2)C3=O)c(OC)n1 (stereo not shown) please
7.12

Entry Cc1nn(C(=O)N(C)C)c2c1[C@@H](c1ccc(Cl)cc1)N(c1cc(C)c3nnc(C)n3c1)C2=O please
7.41

Entry COc1cc(N2C(=O)c3nc(C)n(C(C)C)c3C2c2ccc(Cl)cc2)cc2c1nnn2C (stereo not shown) please
7.02

Entry COc1ncc(-c2cc3c(n2C)C(c2ccc(Cl)cc2)N(c2cc(C)c(=O)n(C)c2)C3=O)cn1 (stereo not shown) please
7.30

Entry Cn1cc(N2C(=O)c3nn(C4CC4)cc3C2c2ccc(Cl)cc2)cc(Cl)c1=O (stereo not shown) please
6.85

Entry COc1cc(Nc2nc(Nc3ccc(N4CCN(C)CC4)cc3)ncc2C)ccc1Cl please
5.94

Entry Cc1nn(C2CC2)c2c1[C@@H](c1ccc(Cl)cc1)N(c1cc(C)c(=O)n(C)c1)C2=O please
7.72

Entry Cc1nn(C2CC2)c2c1C(c1ccc(F)cc1F)N(c1cc(C)c3nnc(C)n3c1)C2=O (stereo not shown) please
7.05

====

System: BRD3 (Homo sapiens (Human), UniProt Q15059) | Read-out: pIC50 | Origin: multiple publications
Scale: negative log10 of molar concentration, which is what pIC50 denotes.

# pIC50 lookup, item Cc1cc(N2C(=O)c3ccn(C)c3C2c2ccc(Cl)cc2)cn(C)c1=O (stereo not shown)
7.04

Entry Cc1cn(CCO)c2c1C(=O)N(c1cc(C)c3nnc(C)n3c1)C2c1ccc(Cl)cc1 (stereo not shown) please
7.60

Entry CCOC(=O)n1cc(C2CC2)c2c1C(c1ccc(Cl)cc1)N(c1cc(C)c3nnc(C)n3c1)C2=O (stereo not shown) please
7.82

Entry COc1ncccc1-c1nc2c([nH]1)[C@@H](c1ccc(Cl)cc1)N(c1cc(C)c3nnn(C)c3n1)C2=O please
7.92

Entry COc1ncc(-n2nc(C)c3c2C(=O)N(c2cc(C)c(=O)n(C)c2)[C@@H]3c2ccc(Cl)cc2)c(OC)n1 please
7.57

Entry COc1ncccc1-n1nc(C)c2c1C(=O)N(c1cc(C)c(=O)n(C)c1)[C@H]2c1ccc(Cl)cc1 please
5.29

Entry Cc1ncccc1-n1nc2c(c1C)C(c1ccc(Cl)cc1)N(c1cc(C)c(=O)n(C)c1)C2=O (stereo not shown) please
7.01

====

System: BRD3 (Homo sapiens (Human), UniProt Q15059) | Read-out: IC50 | Origin: multiple publications
Numbers only; they are read as nM.

Given the entry COc1ncccc1-c1nc2c(n1C(C)C)C(c1ccc(Cl)cc1)N(c1cc(C)c3nnc(CF)n3c1)C2=O (stereo not shown) , what IC50 was observed with BRD3 (Homo sapiens (Human), UniProt Q15059)?
13

Entry Cc1cc(N2C(=O)c3c(C4CC4)n[nH]c3[C@H]2c2ccc(Cl)cc2)cn(C)c1=O please
47

Entry Cc1cn(C2CN(C)C2)c2c1C(=O)N(c1cc(C)c3nnc(C)n3c1)C2c1ccc(Cl)cc1 (stereo not shown) please
25

Entry Cc1cc(N2C(=O)c3nc(C4=CCOCC4)n(C(C)C)c3C2c2ccc(Cl)cc2)cn2c(C)nnc12 (stereo not shown) please
15

====

System: BRD3 (Homo sapiens (Human)) | Read-out: IC50 | Origin: multiple publications
Field 'label' (enum: True / False). Set to True when IC50 is strictly under 0.03 µM; else False.

is_below(IC50, 0.03 µM) for Cc1cn(C2CN(C)C2)c2c1C(=O)N(c1cc(C)c3nnn(C)c3n1)C2c1ccc(Cl)cc1 (stereo not drawn) ?
True

Entry COc1ncc(-n2nc3c(c2C(C)C)[C@H](c2ccc(Cl)cc2)N(c2cc(C)c4onc(C)c4c2)C3=O)c(OC)n1 please
False

Entry Cc1cc(N2C(=O)c3nc(C4CCCC4)n(C(C)C)c3C2c2ccc(Cl)cc2)cn(C)c1=O (stereo not drawn) please
False

Entry Cc1[nH]nc2c1C(c1ccc(Cl)cc1)N(c1cc(C)c(=O)n(C)c1)C2=O (stereo not drawn) please
False

Entry Cc1cc(N2C(=O)c3nc(C4CC4)n(C4COC4)c3C2c2ccc(Cl)cc2)cc2c1nnn2C (stereo not drawn) please
True

Entry CCOC(=O)n1cc(C)c2c1C(c1ccc(Cl)cc1)N(c1cc(C)c3nnc(C)n3c1)C2=O (stereo not drawn) please
False

Entry COc1ncccc1-c1nc2c(n1C(C)C)[C@@H](c1ccc(Cl)cc1)N(c1cc(C)c3nnc(C(F)F)n3n1)C2=O please
True

Entry Cc1cc(N2C(=O)c3c(nc(C)n3C(C)C)[C@H]2c2ccc(Cl)cc2)cc2c1nnn2C please
True

Entry Cc1cc(N2C(=O)c3nc(C)n(C(C)C)c3[C@H]2c2ccc(Cl)cc2)cn2c(C(F)F)nnc12 please
True

Entry Cn1c(-c2cccc(=O)n2C)cc2c1C(c1ccc(Cl)cc1)N(c1cc(Cl)c(=O)n(C)c1)C2=O (stereo not drawn) please
False

Entry COc1ncccc1-c1nc2c(n1C(C)C)C(c1ccc(Cl)cc1)N(c1cc(C)c3nnc(C(F)F)n3n1)C2=O (stereo not drawn) please
True

Entry Cc1cc(N2C(=O)c3cc(-c4cnc(N(C)C)nc4)n(C)c3C2c2ccc(Cl)cc2)cn(C)c1=O (stereo not drawn) please
False

Entry Cc1cc(N2C(=O)c3cc(C4CC4)n(C)c3C2c2ccc(Cl)cc2)cn(C)c1=O (stereo not drawn) please
False

Entry Cc1cc(N2C(=O)c3nc(C4CCN(CC(C)(C)C)CC4)n(C(C)C)c3C2c2ccc(Cl)cc2)cn2c(C)nnc12 (stereo not drawn) please
False
